Sourced from BindingDB's records for doi:10.1016/j.bmc.2006.09.052

Each item that follows carries a reported IC50.
test: Inhibition of MCP1-induced cell migration in U937 cells expressing CCR2 by chemotaxis assay
A number alone suffices; assume µM.

c1coc(CN2CCCC(Nc3ccc4[nH]ncc4c3)C2)c1 (stereo not drawn) : 5

Now consider the entry below.
Qu. Item Clc1ccccc1CN1CCC(Nc2ccc3[nH]ncc3c2)C1 (stereo not drawn) has what recorded IC50?
Ans. 7

###

Each item that follows carries a reported pIC50.
experiment: Inhibition of MCP1-induced cell migration in U937 cells expressing CCR2 by chemotaxis assay
# pIC50: negative log10 of molar concentration; output just the value

Worked examples follow.
c1cncc(CN2CCCC(Nc3ccc4[nH]ncc4c3)C2)c1 (stereo unspecified) : 4.70
O=C(Nc1ccc2[nH]ncc2c1)C1CCCN(Cc2ccccc2)C1 (stereo unspecified) : 6.00
c1ccc(CN2CCCC(Oc3ccc4[nH]ncc4c3)C2)cc1 (stereo unspecified) : 6.00
Clc1ccc(CN2CCCC(Nc3ccc4[nH]ncc4c3)C2)cc1 (stereo unspecified) : 6.00
c1cc(CN2CCCC(Nc3ccc4[nH]ncc4c3)C2)cs1 (stereo unspecified) : 6.00
c1csc(CN2CCCC(Nc3ccc4[nH]ncc4c3)C2)c1 (stereo unspecified) : 5.22
Cc1ccc(CN2CCCC(Nc3ccc4[nH]ncc4c3)C2)cc1 (stereo unspecified) : 6.00
c1ccc(CN2CCC(Nc3ccc4[nH]ncc4c3)C2)cc1 (stereo unspecified) : 5.00
Nc1ccc(CN2CCCC(Nc3ccc4[nH]ncc4c3)C2)cc1 (stereo unspecified) : 5.70

Now consider the entry below.
Qu. Item Clc1ccc(CN2CCC(Nc3ccc4[nH]ncc4c3)C2)cc1 (stereo unspecified) has what recorded pIC50?
Ans. 6.00

###

assay: Inhibition of MCP1-induced cell migration in U937 cells expressing CCR2 by chemotaxis assay
pIC50: −log10 of the molar value.
Answer not met if pIC50 is under 5, and met if it is 5 or more.

Qu. Determine whether measured pIC50 meets or exceeds 5 for c1ccc(CN2CCCC(Nc3ccc4[nH]ncc4c3)C2)cc1 (stereo unspecified)
Ans. met

Qu. Determine whether measured pIC50 meets or exceeds 5 for Nc1ccccc1CN1CCCC(Nc2ccc3[nH]ncc3c2)C1 (stereo unspecified)
Ans. met

Qu. Determine whether measured pIC50 meets or exceeds 5 for Clc1cccc(CN2CCC(Nc3ccc4[nH]ncc4c3)C2)c1 (stereo unspecified)
Ans. met

Qu. Determine whether measured pIC50 meets or exceeds 5 for O=C(NCc1c(F)cccc1F)Nc1ccc2[nH]ncc2c1
Ans. not met

Qu. Determine whether measured pIC50 meets or exceeds 5 for Fc1ccc(CN2CCCC(Nc3ccc4[nH]ncc4c3)C2)cc1 (stereo unspecified)
Ans. met

Qu. Determine whether measured pIC50 meets or exceeds 5 for c1ccc(CN2CCC(Oc3ccc4[nH]ncc4c3)CC2)cc1
Ans. met

Qu. Determine whether measured pIC50 meets or exceeds 5 for O=[N+]([O-])c1ccc(CN2CCCC(Nc3ccc4[nH]ncc4c3)C2)cc1 (stereo unspecified)
Ans. not met

Qu. Determine whether measured pIC50 meets or exceeds 5 for Nc1cccc(CN2CCCC(Nc3ccc4[nH]ncc4c3)C2)c1 (stereo unspecified)
Ans. met

Qu. Determine whether measured pIC50 meets or exceeds 5 for COc1ccc(CN2CCCC(Nc3ccc4[nH]ncc4c3)C2)cc1 (stereo unspecified)
Ans. met

###

assay: Inhibition of MCP1-induced cell migration in U937 cells expressing CCR2 by chemotaxis assay
metric: pIC50
# pIC50: negative log10 of molar concentration; output just the value

O=[N+]([O-])c1cccc(CN2CCCC(Nc3ccc4[nH]ncc4c3)C2)c1 (stereo unspecified) : 4.72
Clc1cccc(CN2CCCC(Nc3ccc4[nH]ncc4c3)C2)c1 (stereo unspecified) : 5.10
Fc1ccc(CN2CCCC(Nc3ccc4[nH]ncc4c3)C2)cc1F (stereo unspecified) : 6.00

Qu. Item c1ccc(CN2CCC(Nc3ccc4[nH]ncc4c3)CC2)cc1 has what recorded pIC50?
Ans. 4.52
